Provenance of the data: patent US20230159469A1

The entries below come with measured IC50 values attached.
measured.target: human recombinant ENPP1 (Homo sapiens, UniProt P22413)
Sequence (P22413 1-925): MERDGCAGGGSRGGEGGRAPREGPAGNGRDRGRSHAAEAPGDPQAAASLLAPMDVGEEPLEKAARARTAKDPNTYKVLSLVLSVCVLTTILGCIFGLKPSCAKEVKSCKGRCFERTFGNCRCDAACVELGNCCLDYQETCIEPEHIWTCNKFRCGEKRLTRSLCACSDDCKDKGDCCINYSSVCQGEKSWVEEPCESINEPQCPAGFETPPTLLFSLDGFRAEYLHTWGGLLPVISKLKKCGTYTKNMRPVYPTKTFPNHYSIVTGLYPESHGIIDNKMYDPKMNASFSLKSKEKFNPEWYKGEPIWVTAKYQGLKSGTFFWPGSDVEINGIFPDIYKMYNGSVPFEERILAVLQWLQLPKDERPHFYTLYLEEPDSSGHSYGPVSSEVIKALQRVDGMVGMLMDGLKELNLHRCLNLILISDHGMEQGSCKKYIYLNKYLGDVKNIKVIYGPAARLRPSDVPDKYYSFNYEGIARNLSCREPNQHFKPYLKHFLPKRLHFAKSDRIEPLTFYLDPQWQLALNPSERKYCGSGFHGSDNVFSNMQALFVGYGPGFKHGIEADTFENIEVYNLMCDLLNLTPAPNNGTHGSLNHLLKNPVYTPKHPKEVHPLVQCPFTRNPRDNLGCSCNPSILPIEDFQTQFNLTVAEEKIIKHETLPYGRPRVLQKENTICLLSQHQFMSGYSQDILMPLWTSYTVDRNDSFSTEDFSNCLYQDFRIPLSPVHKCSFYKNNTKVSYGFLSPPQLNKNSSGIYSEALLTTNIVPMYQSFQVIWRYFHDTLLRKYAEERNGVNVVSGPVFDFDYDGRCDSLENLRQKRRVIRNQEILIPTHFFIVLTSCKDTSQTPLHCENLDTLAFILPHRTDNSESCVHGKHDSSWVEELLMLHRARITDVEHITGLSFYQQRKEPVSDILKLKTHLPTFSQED
assay.comment: ENPP1 enzyme assay with cGAMP substrate (AMP-Glo luminescence)
experimental.parameters: human recombinant ENPP1 3 ng/reaction, cGAMP 5 μM, 37° C. 90 minutes, read-out: Enzymatic activity (ENPP1 IC50)
Structures can show the parent of a compound that is named as a salt.

NS(=O)(=O)Nc1cccc(-c2nn(Cc3ccccc3)c(=O)c3ccccc23)c1 [Compound No. 89, hydrochloride]	< 1 µM

Recorded IC50 for CNc1ccc(Cc2nn(C)c(=O)c3cc(OC)c(OC)cc23)cc1 [Example 164, hydrochloride] , please?
> 10 µM

Recorded IC50 for COc1cc2c(Cc3ccc(Br)cc3)n[nH]c(=O)c2cc1OC , please?
> 10 µM

Recorded IC50 for NS(=O)(=O)NCc1ccc(-c2nn(Cc3ccccc3)c(=O)c3ccccc23)cc1 [Compound No. 101, hydrochloride] , please?
1 to 10 µM

Recorded IC50 for Cn1nc(-c2ccc(CNS(=O)(=O)NC(=O)OC(C)(C)C)cc2)c2ccccc2c1=O , please?
> 10 µM

Recorded IC50 for COc1cc2c(Cc3ccc(NS(=O)(=O)NC(=O)OC(C)(C)C)cc3)n[nH]c(=O)c2cc1OC , please?
> 10 µM

Recorded IC50 for COc1cc2c(Cc3ccc4c(c3)CCN4S(=O)(=O)NC(=O)OC(C)(C)C)nn(C)c(=O)c2cc1OC , please?
> 10 µM
